test system: U-251; experiment: NCI tumour cell line growth inhibition, 48 h
Calls of active or inactive are those of the source. No stated cut-off is given here; in the data, active = GI50 up to about 1.1 µM and inactive = higher.
A correct response names exactly one class from active, inactive

Name the outcome recorded for "COc1ccc2c(NCCCCCCNc3c4ccccc4nc4cc(OC)ccc34)c3ccccc3nc2c1" in the assay.
active

Name the outcome recorded for CC(C)=CCC(O)C1=CC(=O)c2c(O)ccc(O)c2C1=O (stereo not given) in the assay.
inactive

Name the outcome recorded for "CC(=O)/C(=N\N=C(N)N)c1ccccc1" in the assay.
inactive

Name the outcome recorded for O=C(CN1CCCC1)Nc1ccc2c(c1)C1Oc3ccccc3CC1CO2 (stereo not given) in the assay.
inactive

Name the outcome recorded for "O=C(Nc1nc2ncn(CCOC(=O)c3ccccc3)c2c(=S)[nH]1)c1ccccc1" in the assay.
inactive

Name the outcome recorded for "CCOC(=O)Cn1c(=O)c2nc(SC)sc2n(CC)c1=S" in the assay.
inactive

Name the outcome recorded for "O=S1(=O)NN=C(NCc2ccc(F)cc2)c2ccccc21" in the assay.
inactive

Name the outcome recorded for CCc1cccc(C(C)CC)c1NC(=O)C(=O)Cc1nc2ccccc2o1 (stereo not given) in the assay.
inactive

Name the outcome recorded for "COc1ccc(C(=O)Cc2c(C(=O)c3ccccc3)c3ccccc3n2C(=O)c2ccccc2)cc1" in the assay.
inactive

Name the outcome recorded for CCOP(=O)(OCC)C(C(=O)OC)C(=O)C(=O)Nc1c(C)cc(Br)cc1C (stereo not given) in the assay.
inactive

Name the outcome recorded for CSc1nc(N)c(NC2OC(CO)C(O)C2O)c(=O)[nH]1 (stereo not given) in the assay.
inactive

Name the outcome recorded for Cc1ccc(S(=O)(=O)C2=c3ncccc3=C3C(=O)c4ccccc4C(=O)C32)cc1 (stereo not given) in the assay.
inactive

----------
tested on: NCI-H460; assay: NCI tumour cell line growth inhibition, 48 h
Activity calls are given as the source filed them. No stated cut-off is given here; in the data, active = GI50 up to about 1.1 µM and inactive = higher.
Listed below: GI50 values for each entry.

Reference set, count: 6
1. CCCN1CC=CCC1 :: > 100 µM (inactive)
2. N=C(N)N/N=C\c1c(-c2ccccc2)nc2sccn12 :: 16.2 µM (inactive)
3. O=C1CCc2ccccc2O1 [DIHYDROCOUMARIN] :: > 100 µM (inactive)
4. CC(=O)OCCOCCN1CCN(C2=C(Cl)C(=O)c3c(O)ccc(O)c3C2=O)CC1 :: 4.9 µM (inactive)
5. COC(=O)c1c(C)nc(C)c(NO)c1-c1ccccc1C(F)(F)F :: > 100 µM (inactive)
6. Cn1nnc2c(C(N)=S)ncn2c1=O :: > 100 µM (inactive)

Measured GI50 of "COc1ccc(NC2=CC(=O)C(=O)c3ccccc32)nn1" : 1.54 µM (inactive)

Measured GI50 of "CC(=O)/C(=C/N1CCNC1=S)C(=O)Nc1ccccc1C" : > 100 µM (inactive)

Measured GI50 of "Cc1ccc(S(=O)(=O)NNC(=O)Nc2cccc(C(F)(F)F)c2)cc1" : > 100 µM (inactive)

Measured GI50 of "COC(=O)c1cc(C#N)[nH]c1-c1cc(Br)cs1" : 19.8 µM (inactive)

Measured GI50 of "c1ccc([P+](c2ccccc2)(c2ccccc2)C2Sc3ccccc3S2)cc1" : 23.3 µM (inactive)

Measured GI50 of CCOC(=O)/C=C/C1OC(C)(C)OC1/C=C/C(=O)OCC (configuration not stated) : 21.2 µM (inactive)

Source: ChEMBL document CHEMBL1201862
